So I've got a bunch of compounds here, and I need their chromatographic logP values.
Experiment: physchem
Conditions: log P
One number for each entry.

Known results for compounds:
molecular_string: Fc1cc(F)c(-c2c(Cl)nc3c(Cl)cnn3c2Cl)c(F)c1
chromatographic logP: 3.97
--
molecular_string: C[C@H](Nc1c(-c2c(F)cc(F)cc2F)c(Cl)nc2c(Cl)cnn12)C(F)(F)F
chromatographic logP: 4.43
--
molecular_string: Fc1ccc(-c2cnc3c(Cl)cnn3c2Cl)c(Cl)c1
chromatographic logP: 3.56

Switching to the query record.
# get_value(readout='chromatographic logP', item= `N#Cc1cnn2c(Cl)c(-c3ccc(F)cc3Cl)c(Cl)nc12` )
3.48

Data provenance is patent US20060089499A1.
